Attribution: paper PMC11480844

B1: H2-Kb / B5 (parent)
chain 1: TQTVSQSDAHVTVFEGDSVELRCNYSYGGSIYLSWYIQHHGHGLQFLLKYYSGNPVVQGVNGFEAEFSKSDSSFHLRKASVHWSDSAVYFCAVSLYQGGRALIFGTGTTVSVSP
chain 2: EAGVTQSPRYAVLQEGQAVSFWCDPISGHDTLYWYQQPRDQGPQLLVYFRDEAVIDNSQLPSDRFSAVRPKGTNSTLKIQSAKQGDTATYLCASSFAGGARAEQFFGPGTRLTVL
chain 3: not shown
chain 4: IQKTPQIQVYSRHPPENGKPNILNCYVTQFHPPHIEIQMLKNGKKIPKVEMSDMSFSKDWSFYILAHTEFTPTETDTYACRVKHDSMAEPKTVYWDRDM
chain 5: SIINFEKL

# Variants of: B1
# run-description: % of reporter cells activated (NFAT-GFP), raw; also: test concentration or dose not given here
# experimental-context: with B5; scale: % of reporter cells activated
parameter: ratio to parent
Form: value (number only, do not type unit).

Some solved entries appear below for comparison.
[[record]]
variant_string = "chain 5 S1T"
value_measured = 0.986

[[record]]
variant_string = "chain 5 I2Y"
value_measured = 1.01

[[record]]
variant_string = "chain 5 E6G"
value_measured = 1.01


Exercise: Entry chain 5 I3M has what ratio to parent?
Key: 0.972

Exercise: Entry to check: chain 5 K7Q
Key: 1.01
